- TARGET_SYSTEM: hSSTR2 (Homo sapiens (Human))
- Sequence (P30874 whole entry): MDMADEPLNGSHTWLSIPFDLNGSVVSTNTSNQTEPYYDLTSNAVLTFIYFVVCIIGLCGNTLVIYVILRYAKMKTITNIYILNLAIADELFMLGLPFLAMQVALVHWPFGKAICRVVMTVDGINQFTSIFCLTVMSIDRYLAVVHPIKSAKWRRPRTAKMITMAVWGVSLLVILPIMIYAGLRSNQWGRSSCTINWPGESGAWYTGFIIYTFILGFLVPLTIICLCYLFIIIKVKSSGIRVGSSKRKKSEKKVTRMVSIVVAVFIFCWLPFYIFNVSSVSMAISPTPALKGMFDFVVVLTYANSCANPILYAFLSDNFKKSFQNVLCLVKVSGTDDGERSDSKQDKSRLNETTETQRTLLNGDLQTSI
- PROTOCOL_TEXT: Intracellular calcium mobilization assay (FLIPR Calcium 4), hSSTR2;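 note: agonist activity read as intracellular calcium rise in cells expressing human SSTR2, loaded with a calcium-sensitive dye for 60 min at 37 °C, measured by FLIPR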
- Format: cell-based
- CONDITION_CONTEXT: read-out: hSSTR2 % Emax ± SEM
Numbered stars: 1 amine (or outer) side, 2 acyl side, 3 side chain; on linkers, the order of the positions; unused ones are H or OH. Bridge positions count the residues as written; N and C are the ends. Square brackets hold non-standard residues; d marks the D form. Peptide text beside a SMILES is read from it. X1 = CN1C[C@H](CSCCN(CCSC[C@@H]2C[C@@H]3c4cccc5[nH]cc(c45)C[C@H]3N(C)C2)[C@H](CCCCN[*:2])C(=O)[*:1])C[C@@H]2c3cccc4[nH]cc(c34)C[C@H]21; Phe(4-F) = N[C@@H](Cc1ccc(F)cc1)C(=O)O
Catalogue of compounds with associated Emax

COMPOUND: C[C@@H](O)[C@@H]1NC(=O)[C@H](CCCCN)NC(=O)[C@@H](Cc2c[nH]c3ccccc23)NC(=O)[C@H](Cc2ccccc2)NC(=O)[C@H](Cc2ccccc2)NC(=O)[C@H](CCCNC(=N)N)NC(=O)[C@H](NCCSC[C@@H]2C[C@@H]3c4cccc5[nH]cc(c45)C[C@H]3N(C)C2)CCCCNC(=O)[C@H](Cc2c(F)c(F)c(F)c(F)c2F)NC1=O
Emax (%): 90.4

COMPOUND: C[C@@H](O)[C@@H]1NC(=O)[C@H](CCCCN)NC(=O)[C@@H](Cc2c[nH]c3ccccc23)NC(=O)[C@H](Cc2ccccc2)NC(=O)[C@H](Cc2ccccc2)NC(=O)[C@H](CCCNC(=N)N)NC(=O)[C@H](N(CCSC[C@@H]2C[C@@H]3c4cccc5[nH]cc(c45)C[C@H]3N(C)C2)CCSC[C@@H]2C[C@@H]3c4cccc5[nH]cc(c45)C[C@H]3N(C)C2)CCCCNC(=O)[C@H](Cc2ccc(F)cc2)NC1=O [Compound 39] (RFF[dW]KT[Phe(4-F)]; linker N-C via X1)
Emax (%): 87.1

COMPOUND: C[C@@H](O)[C@@H]1NC(=O)[C@H](CCCCN)NC(=O)[C@@H](Cc2c[nH]c3ccccc23)NC(=O)[C@H](Cc2ccncc2)NC(=O)[C@H](Cc2ccccc2)NC(=O)[C@H](CCCNC(=N)N)NC(=O)[C@H](NC[C@H](CCCCNC(=O)CSC[C@@H]2C[C@@H]3c4cccc5[nH]cc(c45)C[C@H]3N(C)C2)NC(=O)CSC[C@@H]2C[C@@H]3c4cccc5[nH]cc(c45)C[C@H]3N(C)C2)CCCCNC(=O)[C@H](Cc2ccccc2)NC1=O
Emax (%): 98.4
